Target: Kir1.1 (ROMK1) (Homo sapiens (Human))
Sequence (P48048 whole entry, species assumed): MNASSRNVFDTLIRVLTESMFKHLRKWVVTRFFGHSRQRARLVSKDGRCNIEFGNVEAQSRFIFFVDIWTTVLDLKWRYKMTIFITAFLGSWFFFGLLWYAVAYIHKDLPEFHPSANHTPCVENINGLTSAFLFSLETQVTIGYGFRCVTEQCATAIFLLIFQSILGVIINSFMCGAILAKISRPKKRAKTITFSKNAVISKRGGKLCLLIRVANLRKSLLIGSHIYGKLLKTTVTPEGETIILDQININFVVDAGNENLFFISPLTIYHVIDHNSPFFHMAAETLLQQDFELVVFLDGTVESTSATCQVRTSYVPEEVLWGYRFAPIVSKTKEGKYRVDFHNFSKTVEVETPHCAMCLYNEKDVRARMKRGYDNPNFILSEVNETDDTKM
Assay: Electrophysiology Assay (whole cell voltage clamp, IonWorks Quattro)
Type: cell-based
Conditions: Chinese hamster ovary cells stably expressing Kir1.1; block during voltage step to 0 mV; read-out: EP Assay IC50
measurement.label: pIC50
Formally, pIC50 is defined as -log10 of the concentration c, with c in mol/L.

Below are worked cases with known answers.
>  <compound>
COc1cc(C(O)CN2CCN(CC(O)c3ccc4c(c3)C[C@H](C)OC4=O)CC2)ncc1C#N (single isomer, unassigned) [Example 44B]

>  <observed.measurement>
7.74

$$$$
>  <compound>
COc1cc(C(O)CN2C3CCC2C2CCC3N2C[C@H](O)c2ccc3c(c2C)COC3=O)ncc1C#N (single isomer, unassigned) [Example 6]

>  <observed.measurement>
7.68

$$$$

Query: Identify measured pIC50 associated with Cc1c([C@@H](O)CN2CC3CCC2CN3S(=O)(=O)c2ccc(-n3cnnn3)cc2)ccc2c1COC2=O (single isomer, unassigned) [Example 17A]
Reply: 6.77

Query: Identify measured pIC50 associated with O=C1OCCc2cc(CCN3CCN(CC(O)c4ccc5c(c4C(F)(F)F)COC5=O)CC3)ccc21 (stereo not shown)
Reply: 7.42

Query: Identify measured pIC50 associated with Cc1c([C@@H](O)CN2C3CCC2C2CCC3N2CC(O)c2ccc(C#N)cn2)ccc2c1COC2=O (single isomer, unassigned)
Reply: 6.71

Query: Identify measured pIC50 associated with `Cc1c([C@@H](O)CN2CCN(CCc3ccc4c(c3)C[C@@H](C)OC4=O)CC2)ccc2c1COC2=O`
Reply: 7.48

Query: Identify measured pIC50 associated with `Cc1c([C@@H](O)CN2CCN(c3ccc(C#N)cn3)CC2)ccc2c1COC2=O`
Reply: 7.27
